Ref: the C3SDB collision cross section collection

# condition-notes: [M-H]-; instrument: DT; single field, calibrated with Agilent tune mix (Agilent)
observed-property: collision cross section (N2) (Å²)

compound: CCCC/C=C\CCCCCCCC(=O)OC[C@H](COP(=O)(O)O[C@H]1C(O)C(O)C(O)[C@@H](O)C1O)OC(=O)CCCCCCCCC/C=C\CCCCCCCCCC (some centres undefined) [PI(36:2)]
observed-property: collision cross section (N2)
unit: Å²
test-value: 289.3
--
compound: CCCCCCCCCCCCCCCC(=O)O[C@H](CO)COP(=O)(O)OCCN [LPE(16:0)]
observed-property: collision cross section (N2)
unit: Å²
test-value: 207.1
--
compound: CC/C=C\C/C=C\C/C=C\C/C=C\C/C=C\C/C=C\CCC(=O)O[C@H](COC(=O)CCCCCCCCCCCCCCCCC)COP(=O)(O)O[C@H]1C(O)C(O)C(O)[C@@H](O)C1O (some centres undefined) [PI(40:6)]
observed-property: collision cross section (N2)
unit: Å²
test-value: 296.4
--
compound: CCCCC/C=C\C/C=C\C/C=C\CCCCCCC(=O)O[C@H](COC(=O)CCCCCCCCCCCCCCCCCC)COP(=O)(O)O[C@H]1C(O)C(O)C(O)[C@@H](O)C1O (some centres undefined) [PI(39:3)]
observed-property: collision cross section (N2)
unit: Å²
test-value: 296.5
--
compound: CC/C=C\C/C=C\C/C=C\CCCCCCCC(=O)O[C@H](COC(=O)CCCCCCCCC/C=C\CCCCCCCC)COP(=O)(O)OC[C@@H](O)CO [PG(38:4)]
observed-property: collision cross section (N2)
unit: Å²
test-value: 278.7
--
compound: CCCCCCCCCCCCC=CC[C@@H](O)[C@H](CO)NC(=O)CC=CCCCCCCCCCCCCCCCCCCCC [Cer(42:2)]
observed-property: collision cross section (N2)
unit: Å²
test-value: 266.1
--
compound: CCCCC/C=C\C/C=C\C/C=C\C/C=C\CCCCCC(=O)O[C@H](COC(=O)CCCCCCCCCCCCC)COP(=O)(O)O [PA(36:4)]
observed-property: collision cross section (N2)
unit: Å²
test-value: 258.1
--
compound: CCCCC/C=C\C/C=C\CCCCCCCCCCCC(=O)O[C@H](COC(=O)CCCCCCCCCCCCC)COP(=O)(O)OC[C@H](N)C(=O)O [PS(36:2)]
observed-property: collision cross section (N2)
unit: Å²
test-value: 277.5
--
compound: CCCCCCCCCC/C=C\CCCCCCCCCC(=O)O[C@H](COC(=O)CCCCCCCCCCC)COP(=O)(O)OC[C@@H](O)CO [PG(34:1)]
observed-property: collision cross section (N2)
unit: Å²
test-value: 270.2
--
compound: CCCCCCCCCC/C=C\CCCCCCCCCC(=O)O[C@H](COC(=O)CCCCCCCCCCCCC)COP(=O)(O)OCCN [PE(36:1)]
observed-property: collision cross section (N2)
unit: Å²
test-value: 269.9
--
compound: CCCCCCCCCCCCCCCCCC(=O)OC[C@@H](O)COP(=O)(O)O[C@H]1C(O)C(O)C(O)[C@@H](O)C1O (some centres undefined) [LPI(18:0)]
observed-property: collision cross section (N2)
unit: Å²
test-value: 236.8
--
compound: CCCCC/C=C\C/C=C\CCCCCCCCCCCC(=O)O[C@H](COC(=O)CCCCCCC/C=C\C/C=C\CCCCC)COP(=O)(O)OC[C@H](N)C(=O)O [PS(40:4)]
observed-property: collision cross section (N2)
unit: Å²
test-value: 286.9
--
compound: CCCCC/C=C\C/C=C\C/C=C\CCCCC(=O)O[C@H](COC(=O)CCCCCCCCC/C=C\CCCCCCCC)COP(=O)(O)O [PA(38:4)]
observed-property: collision cross section (N2)
unit: Å²
test-value: 264.3
--
compound: CCCCC/C=C\C/C=C\C/C=C\C/C=C\CCCCCC(=O)O[C@H](COC(=O)CCCCCCCCCCCCCCCC)COP(=O)(O)O[C@H]1C(O)C(O)C(O)[C@@H](O)C1O (some centres undefined) [PI(39:4)]
observed-property: collision cross section (N2)
unit: Å²
test-value: 295
--
compound: CCCCC/C=C\C/C=C\C/C=C\CCCCC(=O)O[C@H](COC(=O)CCCCCCCCC/C=C\C/C=C\CCCCC)COP(=O)(O)O[C@H]1C(O)C(O)C(O)[C@@H](O)C1O (some centres undefined) [PI(38:5)]
observed-property: collision cross section (N2)
unit: Å²
test-value: 291.8
--
compound: CCCCC/C=C\C/C=C\CCCCCCCC(=O)O[C@H](COC(=O)CCCCCCCCC/C=C\CCCCCCCC)COP(=O)(O)OC[C@@H](O)CO [PG(38:3)]
observed-property: collision cross section (N2)
unit: Å²
test-value: 279.2
--
compound: CC/C=C\C/C=C\C/C=C\C/C=C\C/C=C\CCCC(=O)O[C@H](CO/C=C\CCCCCCCCCCCCCCCCCC)COP(=O)(O)OCCN [PE(p40:5)]
observed-property: collision cross section (N2)
unit: Å²
test-value: 276.1
--
compound: CC/C=C\C/C=C\C/C=C\C/C=C\CCCCC(=O)OC[C@H](COP(=O)(O)O[C@H]1C(O)C(O)C(O)[C@@H](O)C1O)OC(=O)CCCCCCCCC/C=C\CCCCCCCCCC (some centres undefined) [PI(40:5)]
observed-property: collision cross section (N2)
unit: Å²
test-value: 297.7
--
compound: CCCCCCCC/C=C\CCCCCCCCCC(=O)O[C@H](COC(=O)CCCCCCCCCCC)COP(=O)(O)OC[C@@H](O)CO [PG(32:1)]
observed-property: collision cross section (N2)
unit: Å²
test-value: 263.3
--
compound: CC/C=C\C/C=C\C/C=C\CCCCCCCC(=O)O[C@H](CO/C=C\CCCCCCCCCCCCCCCC)COP(=O)(O)OCCN [PE(p36:3)]
observed-property: collision cross section (N2)
unit: Å²
test-value: 265.6
--
compound: CC/C=C\C/C=C\C/C=C\C/C=C\CCCCC(=O)OC[C@H](COP(=O)(O)OCCN)OC(=O)CCCCCCCCC/C=C\C/C=C\CCCCC [PE(38:6)]
observed-property: collision cross section (N2)
unit: Å²
test-value: 269.8
--
compound: CCCCC/C=C\C/C=C\C/C=C\CCCCCCC(=O)O[C@H](COC(=O)CCCCCCC/C=C\CCCCCC)COP(=O)(O)OCCN [PE(36:4)]
observed-property: collision cross section (N2)
unit: Å²
test-value: 265.2
--
compound: CCCCCC/C=C\CCCCCCCC(=O)OC[C@H](COP(=O)(O)O[C@H]1C(O)C(O)C(O)[C@@H](O)C1O)OC(=O)CCCCCCCCC/C=C\CCCCCCCCCC (some centres undefined) [PI(38:2)]
observed-property: collision cross section (N2)
unit: Å²
test-value: 295.2
--
compound: CCCCCCCCCCCCC=CC[C@@H](O)[C@H](CO)NC(=O)CCCCCCCCCCCCCCCCCCCCCCC [Cer(42:1)]
observed-property: collision cross section (N2)
unit: Å²
test-value: 267.7

---

# condition-notes: [M]+; instrument: TW; calibrated with polyalanine and drug standards
observed-property: collision cross section (N2) (Å²)

I: CCCCCCCCCCCC[N+](C)(C)Cc1ccccc1 [BENZALKONIUM CHLORIDE C12]
II: CC(=O)OCC[N+](C)(C)C
Which value of collision cross section (N2) is greater, the one for I or the one for II ? Label of pick, please.
I
(I: 193 Å², II: 130.1 Å²)

---

# condition-notes: [M+Na]+; instrument: DT; single field
observed-property: collision cross section (N2) (Å²)

entry-smiles: CCCCCCCCCCCCCCCCCCCC(=O)OC[C@@H](COC(=O)CCCCCCCCCCC)OC(=O)CCCCCCCCCCCCCCCCCCC
unit: Å²
collision cross section (N2): 323.38

entry-smiles: CCCCCC/C=C\CCCCCCCCCC(=O)O[C@H](COC(=O)CCCCCCC/C=C\CCCCCCCC)COP(=O)([O-])OCC[N+](C)(C)C
unit: Å²
collision cross section (N2): 293.18

entry-smiles: CCCCC/C=C\CCCCCCCC(=O)OC[C@H](COC(=O)CCCCCCC/C=C\CCCCCCCCC)OC(=O)CCCCCCC/C=C\CCCCC
unit: Å²
collision cross section (N2): 308.93

entry-smiles: CCCCCCCCCC/C=C\CCCCCCCCCC(=O)OC[C@@H](COC(=O)CCCCCCCCCCC)OC(=O)CCCCCCCCC/C=C\CCCCCCCCCC
unit: Å²
collision cross section (N2): 332.96

entry-smiles: CC/C=C\C/C=C\C/C=C\C/C=C\C/C=C\CCCCCC(=O)OC[C@@H](COC(=O)CCCCCCC/C=C\CCCCCC)OC(=O)CCCCCC/C=C\C/C=C\C/C=C\CCCCC
unit: Å²
collision cross section (N2): 329.2
